From: patent US20240376056A1

tested system: IL-17A/A (Homo sapiens)
protocol details: HEK-Blue IL-17A/A inhibition assay (SEAP reporter)
condition parameters: HEK-Blue cells (HEK 293 expressing IL-17RA, IL-17RC, Act1); IL-17A/A stimulation; 20 hours; SEAP read at A630; 4-parameter fit
pIC50: −log10 of the molar value.
recorded endpoint: pIC50

**Q:** Given CCn1nccc1C(=O)N[C@H](C(=O)Nc1ccc(C(COC)C(=O)N(C)CC(F)(F)F)cc1F)C1CCCCCC1 (single isomer, unassigned) [Compound 102] , state its recorded pIC50.
**A:** < 6.00

**Q:** I have this compound here, CCn1nccc1C(=O)N[C@H](C(=O)Nc1ccc([C@H](C)C(=O)N(C)CC(F)(F)F)cc1F)C1CCC(F)(F)CC1 [Compound 74] , and I need its recorded pIC50.
**A:** 6.00 to 7.00

**Q:** Return reported pIC50; argument: CCC(C1CCC1)[C@H](NC(=O)c1ccnn1CC)C(=O)Nc1ccc([C@H](C)C(=O)NCC(F)(F)F)cc1F (single isomer, unassigned) [Compound 86]
**A:** 6.00 to 7.00

**Q:** Give the measured pIC50 of CCn1nccc1C(=O)N[C@H](C(=O)Nc1cc(OC(F)(F)F)c(C(C)C(=O)N(C)CC(F)(F)F)cc1F)C(C1CC1)C1CC1 (stereo partly drawn) [Compound 245] .
**A:** 6.00 to 7.00

**Q:** # get_value(readout='pIC50', item= COCc1cc(NC(=O)[C@@H](NC(=O)c2ccnn2C(C)C)C(C2CC2)C2CC2)c(F)cc1C(C)C(=O)NCC(F)(F)F (single isomer, unassigned) [Compound 124] )
**A:** > 7.00

**Q:** What measured pIC50 goes with CC(C(=O)NCC(F)(F)F)c1cc(F)c(NC(=O)[C@@H](NC(=O)c2ccnn2C(C)C)C(C2CC2)C2CC2)cc1C1CC1 (single isomer, unassigned) [Compound 126] ?
**A:** 6.00 to 7.00

###

tested system: IL-17A/A (Homo sapiens)
protocol details: HEK-Blue IL-17A/A inhibition assay (SEAP reporter)
condition parameters: HEK-Blue cells (HEK 293 expressing IL-17RA, IL-17RC, Act1); IL-17A/A stimulation; 20 hours; SEAP read at A630; 4-parameter fit
Procedure: The HEK-Blue #NC108637 […]. Cells were grown and prepared for assays according to the manufacturer's instructions. […] Media from the cells is then added to a development reagent (Quanti-Blue Substrate, Fisher #NC971 1613), and read at A630. […]
pIC50: −log10 of the molar value.
recorded endpoint: pIC50

**Q:** Tell me the measured pIC50 of CC(C)n1nccc1C(=O)N[C@H](C(=O)Nc1ccc([C@H](C)C(=O)N[C@@H](CO)C2CCC2)cc1F)C(C1CC1)C1CC1 [Compound 156] , please.
**A:** 6.00 to 7.00

**Q:** Find the recorded pIC50 belonging to CC(C)C(C(=O)NCC(F)(F)F)c1ccc(NC(=O)[C@@H](NC(=O)c2ccnn2C(C)C)C(C2CC2)C2CC2)c(F)c1 (single isomer, unassigned) [Compound 129] and report it.
**A:** < 6.00

**Q:** Which pIC50 is reported for this compound? CC(C)n1nccc1C(=O)N[C@H](C(=O)Nc1ccc([C@H](C)C(=O)N(C)CC(F)(F)F)cc1F)C(C1CC1)C1CC1 [Compound 78]
**A:** > 7.00

**Q:** Could you tell me which pIC50 is on file for CCn1nccc1C(=O)N[C@H](C(=O)Nc1ccc([C@H](C)C(=O)N2CCC[C@H]2C(F)(F)F)cc1F)C(C1CC1)C1CC1 [Compound 11] ?
**A:** > 7.00

**Q:** Item CC(C)c1nocc1C(=O)N[C@H](C(=O)Nc1cc(C(F)(F)F)c(C(C)C(=O)NCC(F)(F)F)cc1F)C(C1CC1)C1CC1 (stereo partly drawn) [Compound 229] has what recorded pIC50?
**A:** < 6.00

**Q:** Value lookup for pIC50; key = C[C@H](C(=O)NCC(F)(F)F)c1ccc(NC(=O)[C@@H](NC(=O)c2ccnn2C2CCCNC2)C(C2CC2)C2CC2)c(F)c1 (single isomer, unassigned) [Compound 97]
**A:** < 6.00

###

tested system: IL-17A/A (Homo sapiens)
protocol details: HEK-Blue IL-17A/A inhibition assay (SEAP reporter)
condition parameters: HEK-Blue cells (HEK 293 expressing IL-17RA, IL-17RC, Act1); IL-17A/A stimulation; 20 hours; SEAP read at A630; 4-parameter fit
recorded endpoint: IC50

**Q:** Please report the recorded IC50 for CC(C)n1nccc1C(=O)N[C@H](C(=O)Nc1ccc([C@H](C)C(=O)NCC(F)(F)CN)cc1F)C(C1CC1)C1CC1 .
**A:** > 1000 nM

**Q:** I'd like to know its IC50. The compound in question is CC(C)n1nccc1C(=O)N[C@H](C(=O)Nc1ccc([C@H](C)C(=O)N[C@@H](C)C(F)(F)F)cc1F)C(C1CC1)C1CC1
**A:** 100 to 1000 nM

**Q:** Consider the compound shown here: Cc1cc(NC(=O)[C@@H](NC(=O)c2ccnn2C(C)C)C(C2CC2)C2CC2)c(F)cc1C(C)C(=O)N(C)CC(F)(F)F (some centres unmarked) What is its recorded IC50?
**A:** < 100 nM

**Q:** So what's the measured IC50 for this one? CCc1nocc1C(=O)N[C@H](C(=O)Nc1ccc([C@H](C)C(=O)N(C)CC(F)(F)F)cc1F)C(C1CC1)C1CC1
**A:** < 100 nM

**Q:** Name the recorded IC50 for CC(C(=O)NCC(F)(F)F)c1cc(F)c(NC(=O)[C@@H](NC(=O)c2ccnn2C(C)C)C(C2CC2)C2CC2)cc1N(C)C (single isomer, unassigned) [Compound 163] .
**A:** < 100 nM

###

Give measured IC50 for each item. Keep answers brief.
tested system: IL-17A/A (Homo sapiens, UniProt Q16552)
Sequence (Q16552 24-155): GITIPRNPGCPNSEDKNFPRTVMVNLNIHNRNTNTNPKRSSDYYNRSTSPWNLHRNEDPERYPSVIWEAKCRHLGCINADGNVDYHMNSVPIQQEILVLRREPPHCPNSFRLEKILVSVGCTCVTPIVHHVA
protocol details: HEK-Blue IL-17A/A inhibition assay (SEAP reporter)
condition parameters: HEK-Blue cells (HEK 293 expressing IL-17RA, IL-17RC, Act1); IL-17A/A stimulation; 20 hours; SEAP read at A630; 4-parameter fit
Description: The HEK-Blue #NC108637 […]. Cells were grown and prepared for assays according to the manufacturer's instructions. […] Media from the cells is then added to a development reagent (Quanti-Blue Substrate, Fisher #NC971 1613), and read at A630. […]

**Q:** GET /values?readout=IC50&item= CC(C)n1nccc1C(=O)N[C@H](C(=O)Nc1ccc(C(CO)C(=O)NCC(F)(F)F)cc1F)C(C1CC1)C1CC1 (some centres unmarked) [Compound 168]
**A:** 100 to 1000 nM

**Q:** Consider the molecule shown here: CC(C)n1nccc1C(=O)N[C@H](C(=O)Nc1ccc([C@H](C)C(=O)NC(C2CCOC2)C(F)(F)F)cc1F)C(C1CC1)C1CC1 (single isomer, unassigned) [Compound 151] What is its recorded IC50?
**A:** 100 to 1000 nM

**Q:** Would you kindly share the measured IC50 for CC(C)n1nccc1C(=O)N[C@H](C(=O)Nc1ccc([C@H](C)C(=O)NCC(N(C)C)C(F)(F)F)cc1F)C(C1CC1)C1CC1 (some centres unmarked) [Compound 32] ?
**A:** > 1000 nM

**Q:** Reported IC50, molecule CCn1nccc1C(=O)N[C@H](C(=O)Nc1cc(C)c(C(C)C(=O)NCC(F)(F)F)cc1F)C(C1CC1)C1CC1 (some centres unmarked) [Compound 236] : ____
**A:** < 100 nM

**Q:** Please give the measured IC50 for this molecule: CC(C)n1nccc1C(=O)N[C@H](C(=O)Nc1ccc([C@H](C)C(=O)N2C[C@@H](F)[C@@H](F)C2)cc1F)C(C1CC1)C1CC1 [Compound 40]
**A:** 100 to 1000 nM

**Q:** Which value of IC50 has been reported for CC(C(=O)NCC(F)(F)F)c1cc(F)c(NC(=O)[C@@H](NC(=O)c2ccnn2C(C)C)C(C2CC2)C2CC2)cc1N1CCOCC1 (some centres unmarked) [Compound 188] in the records?
**A:** < 100 nM

**Q:** Entry under review: Cc1cc(NC(=O)[C@@H](NC(=O)c2ccnn2C)C(C2CC2)C2CC2)c(F)cc1C(C)C(=O)N(C)CC(F)(F)F (some centres unmarked) [Compound 223] . Reported IC50?
**A:** < 100 nM

**Q:** Which value of IC50 has been reported for C[C@H](C(=O)N(C)CC(F)(F)F)c1ccc(NC(=O)[C@@H](Nc2nccn3nccc23)C(C2CC2)C2CC2)c(F)c1 [Compound 106] in the records?
**A:** > 1000 nM

**Q:** Which IC50 reading was recorded for the molecule CCc1nocc1C(=O)N[C@H](C(=O)Nc1ccc([C@H](C)C(=O)NCC(F)(F)F)cc1F)C(C1CC1)C1CC1 [Compound 84] ?
**A:** < 100 nM

**Q:** Item under review: CCn1nccc1C(=O)N[C@H](C(=O)Nc1ccc([C@H](C)C(=O)N(CCO)CC(F)(F)F)cc1F)C(C1CC1)C1CC1 [Compound 10] . Reported IC50?
**A:** 100 to 1000 nM

**Q:** Fill in: IC50 of CC(C(=O)NC1CCC1(F)F)c1cc(F)c(NC(=O)[C@@H](NC(=O)c2ccnn2C(C)C)C(C2CC2)C2CC2)cc1C(F)(F)F (single isomer, unassigned) [Compound 230] is ___
**A:** 100 to 1000 nM
